# credit: patent US20180355014A1

Biological target: T1, HLA-A*11:01 (human)
T1 construct: Recombinant MHC class I molecule without the test peptide; the peptide is the other partner
Test: REVEAL MHC-peptide binding assay, recombinant HLA-A*11:01
The following binders are shown together with reported In Vitro Score values.
ENDPOINT LABEL: In Vitro Score

| BINDER | VALUE REPORTED |
| --- | --- |
| FWVKRGSKK (synthetic 9-mer; the entry already carries the mutation) [FWVKRGSKK (SEQ ID NO: 59)] | 5.6 % of positive control peptide |
| FWVKRGAKK (synthetic 9-mer; the entry already carries the mutation) [FWVKRGAKK (SEQ ID NO: 71)] | 13.2 % of positive control peptide |
| AFIIFWVKR (synthetic 9-mer) [AFIIFWVKR (SEQ ID NO: 17)] | 25.9 % of positive control peptide |
| VAFIIFWVH (synthetic 9-mer; the entry already carries the mutation) [VAFIIFWVH (SEQ ID NO: 37)] | 12.3 % of positive control peptide |
| AFIIFWVLR (synthetic 9-mer; the entry already carries the mutation) [AFIIFWVLR (SEQ ID NO: 31)] | 17.2 % of positive control peptide |
| WVHRGRKKL (synthetic 9-mer; the entry already carries the mutation) [WVHRGRKKL (SEQ ID NO: 43)] | 5.6 % of positive control peptide |
| WVSRGRKKL (synthetic 9-mer; the entry already carries the mutation) [WVSRGRKKL (SEQ ID NO: 29)] | 4.4 % of positive control peptide |
| IIFWVKRGH (synthetic 9-mer; the entry already carries the mutation) [IIFWVKRGH (SEQ ID NO: 65)] | 19.5 % of positive control peptide |
| IIFWVQRGN (synthetic 9-mer; the entry already carries the mutations) [IIFWVQRGN (SEQ ID NO: 85)] | 29 % of positive control peptide |
| WVQRGAKKL (synthetic 9-mer; the entry already carries the mutations) [WVQRGAKKL (SEQ ID NO: 84)] | 3.8 % of positive control peptide |
| IFWVKRGRK (synthetic 9-mer) [IFWVKRGRK (SEQ ID NO: 20)] | 29.3 % of positive control peptide |
| VAFIIFWVA (synthetic 9-mer; the entry already carries the mutation) [VAFIIFWVA (SEQ ID NO: 44)] | 2.8 % of positive control peptide |
| FWVLRGRKK (synthetic 9-mer; the entry already carries the mutation) [FWVLRGRKK (SEQ ID NO: 35)] | 5 % of positive control peptide |
| FWVSRGRKK (synthetic 9-mer; the entry already carries the mutation) [FWVSRGRKK (SEQ ID NO: 28)] | 6.3 % of positive control peptide |
| FWVKRGNKK (synthetic 9-mer; the entry already carries the mutation) [FWVKRGNKK (SEQ ID NO: 75)] | 7.3 % of positive control peptide |
| IFWVQRGSK (synthetic 9-mer; the entry already carries the mutations) [IFWVQRGSK (SEQ ID NO: 78)] | 103 % of positive control peptide |
| FIIFWVKRG (synthetic 9-mer) [FIIFWVKRG (SEQ ID NO: 18)] | 0.4 % of positive control peptide |
| WVKRGRKKS (synthetic 9-mer; the entry already carries the mutation) [WVKRGRKKS (SEQ ID NO: 89)] | 6.7 % of positive control peptide |
| WVKRGLKKL (synthetic 9-mer; the entry already carries the mutation) [WVKRGLKKL (SEQ ID NO: 64)] | 22.1 % of positive control peptide |
| FWVQRGRKK (synthetic 9-mer; the entry already carries the mutation) [FWVQRGRKK (SEQ ID NO: 55)] | 5.7 % of positive control peptide |
| FWVQRGNKK (synthetic 9-mer; the entry already carries the mutations) [FWVQRGNKK (SEQ ID NO: 87)] | 5.9 % of positive control peptide |
